# credit: paper PMC5540273

Test system: PRP4
conditionSet: concentration: 1 μM, replicates: in singlicate; n = 1;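 further: KINOMEscan kinase panel screen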
Measured %Inh by item
readoutLabel: %Inh

{"molecule": "CS(=O)(=O)c1ccc(-c2c(-c3ncn[nH]3)sc(N3CCOCC3)c2C#N)cc1", "testValue": "0%"}
{"molecule": "COc1ccc(C2=C(Nc3cccc(C(=O)O)c3)C(=O)NC2=O)cc1", "testValue": "0%"}
{"molecule": "Cl.O=C(Nc1cccc(-c2nn3ncccc3c2-c2ccnc(Nc3cccnc3)n2)c1)c1c(F)cccc1F", "testValue": "11%"}
{"molecule": "O=C(Nc1ccc2c(c1)OCO2)NC1CCN(c2ccnc(Nc3ccc(F)cc3)n2)C1 (centres unmarked)", "testValue": "17%"}
{"molecule": "Cc1csc(-c2nc(Nc3ccncc3)c3ccccc3n2)n1", "testValue": "0%"}
{"molecule": "O=C1NC(=O)C(N2CCc3ccccc32)=C1c1ccccc1Cl", "testValue": "0%"}
{"molecule": "O=C(O)COc1ncnc2cc(-c3ccc4[nH]ncc4c3)sc12", "testValue": "0%"}
{"molecule": "Cl.NC(=O)c1cccc(Nc2nccc(Nc3ccc(Oc4cccc(Cl)c4)c(Cl)c3)n2)c1", "testValue": "18%"}
{"molecule": "CN1C(=O)C(Nc2ccc(Cl)c(C(=O)O)c2)=C(c2ccc(Cl)cc2)C1=O", "testValue": "0%"}
{"molecule": "Cc1ccccc1-n1cnc2c(N)ncnc21", "testValue": "0%"}
{"molecule": "CCCc1ccc(S(=O)(=O)NC2CCN(c3ccnc(Nc4ccc(F)cc4)n3)C2)cc1 (centres unmarked)", "testValue": "20%"}
{"molecule": "O=C(Nc1n[nH]c2nc(-c3nccs3)c(Br)cc12)C1CC1", "testValue": "51%"}
{"molecule": "Cc1cc(-c2ccc3c(c2)CC[C@@H](N[C@@H](C)c2ccccc2)C3)cnc1N.Cl", "testValue": "0%"}
{"molecule": "COc1cc2nccc(Nc3ccc(NC(=O)c4ccc(C)cc4)c(O)c3)c2cc1OC.Cl", "testValue": "2%"}
{"molecule": "C[C@@H]1CCCCN1c1cc(-c2ccc3c(N)n[nH]c3c2)nc(N)n1", "testValue": "1%"}
{"molecule": "Cc1c(O)cccc1Nc1ccnc2ccc(C(F)(F)F)cc12.Cl", "testValue": "4%"}
{"molecule": "Cc1ccc(NC(=O)Nc2cc(C(C)(C)C)nn2-c2ccccc2)cc1", "testValue": "1%"}
{"molecule": "Cc1cccc(-c2nc(-c3ccc(S(C)(=O)=O)cc3)sc2-c2ccnc(NCCc3ccccc3)c2)c1", "testValue": "9%"}
{"molecule": "CC(C)(C)c1ccc(C(=O)Nc2cn3cc(-c4cccnc4)ccc3n2)cc1", "testValue": "22%"}
{"molecule": "O=C(Nc1n[nH]c2nc(-c3nccs3)c(Br)cc12)C1CCCC1", "testValue": "13%"}
{"molecule": "Fc1cc(Cl)ccc1Nc1ccnc2cc(-c3ccc(CN4CCCCC4)o3)ccc12", "testValue": "21%"}
{"molecule": "Cc1cccc(-c2nc(C)cc(Nc3ccncc3)n2)n1", "testValue": "13%"}
{"molecule": "Cc1nnc(-c2ccc3occ(-c4ccc(S(C)=O)cc4)c3c2)[nH]1 (centres unmarked)", "testValue": "10%"}
{"molecule": "Cc1cccc(-c2cc(Nc3ccncc3)c3ccccc3n2)n1", "testValue": "19%"}
{"molecule": "CCn1c(-c2ccccn2)nc2cnccc21", "testValue": "46%"}
{"molecule": "CC(C)(C)c1ccc(C(=O)Nc2cn3cc(Cl)ccc3n2)cc1", "testValue": "0%"}
{"molecule": "COc1ccc(Nc2nccc(-c3cccc(NC(=O)c4cc5cc(F)ccc5[nH]4)c3)n2)cc1", "testValue": "66%"}
{"molecule": "COc1cccc(-c2cc(-c3c[nH]nc3-c3ccccn3)ccn2)c1", "testValue": "26%"}
{"molecule": "Nc1nc(-c2nccs2)c(-c2ccnc3ccccc23)s1", "testValue": "20%"}

###

System: ROS1
conditionSet: concentration: 1 μM, replicates: in singlicate; n = 1

{"compound": "O=c1cc(N2CCOCC2)nc2n(Cc3cccc(Cl)c3Cl)ccn12", "targetDesc": "ROS1", "%Inh [%]": 7}
{"compound": "Cl.Oc1ccc(-c2nc(-c3ccccc3)[nH]c2-c2ccncc2)cc1", "targetDesc": "ROS1", "%Inh [%]": 0}
{"compound": "O=C1NC(=O)C(N2CCc3ccccc32)=C1c1ccccc1Cl", "targetDesc": "ROS1", "%Inh [%]": 22}
{"compound": "CN(C)CCN(C)C(=O)c1cc(-c2ccncc2)c(-c2ccc(Cl)c(O)c2)o1.Cl.Cl", "targetDesc": "ROS1", "%Inh [%]": 0}
{"compound": "C[C@@H]1CCCCN1c1cc(-c2ccc3c(N)n[nH]c3c2)nc(N)n1", "targetDesc": "ROS1", "%Inh [%]": 5}
{"compound": "Nc1nc(-c2nccs2)c(-c2ccnc3ccccc23)s1", "targetDesc": "ROS1", "%Inh [%]": 0}
{"compound": "Cc1ccc(NC(=O)Nc2cc(C(C)(C)C)nn2-c2ccccc2)cc1", "targetDesc": "ROS1", "%Inh [%]": 9}
{"compound": "CC(=O)Nc1nc2cnc(Nc3cc(NC(=O)c4cccc(CCC#N)c4)ccc3C)nc2s1", "targetDesc": "ROS1", "%Inh [%]": 0}
{"compound": "Cc1cccc(-c2nc(-c3ccc(S(C)(=O)=O)cc3)sc2-c2ccnc(NCCc3ccccc3)c2)c1", "targetDesc": "ROS1", "%Inh [%]": 0}
{"compound": "Cc1cc(-c2ccc3c(c2)CC[C@@H](N[C@@H](C)c2ccccc2)C3)cnc1N.Cl", "targetDesc": "ROS1", "%Inh [%]": 15}
{"compound": "O=C(Nc1n[nH]c2cc(-c3cccc(F)c3F)ccc12)C1CC1", "targetDesc": "ROS1", "%Inh [%]": 7}
{"compound": "Cc1ccc(-c2cc(-c3c[nH]nc3-c3ccccn3)ccn2)cc1", "targetDesc": "ROS1", "%Inh [%]": 37}
{"compound": "CCCc1ccc(S(=O)(=O)NC2CCN(c3ccnc(Nc4ccc(F)cc4)n3)C2)cc1 (centres unmarked)", "targetDesc": "ROS1", "%Inh [%]": 0}
{"compound": "COc1cc(Nc2nccc(N3CCC(NC(=O)Nc4cc(C)ccc4C)C3)n2)cc(OC)c1OC (centres unmarked)", "targetDesc": "ROS1", "%Inh [%]": 42}
{"compound": "Cc1ccc(NC(=O)Nc2cccc(Cl)c2)cc1-c1ccc(C(=O)Nc2ccncc2)cc1", "targetDesc": "ROS1", "%Inh [%]": 0}
{"compound": "COc1ccc2nc(-c3cccc(C)n3)nc(Nc3ccncc3)c2c1", "targetDesc": "ROS1", "%Inh [%]": 4}
{"compound": "COc1cc2ncnc(Nc3ccc4nc(-c5ccccc5)[nH]c4c3)c2cc1OC.Cl", "targetDesc": "ROS1", "%Inh [%]": 47}
{"compound": "Cc1csc(-c2nc(Nc3ccncc3)c3ccccc3n2)n1", "targetDesc": "ROS1", "%Inh [%]": 22}
{"compound": "CC1=C(C(=O)Nc2cc3cn[nH]c3cc2F)C(c2ccc(C(F)(F)F)cc2)CC(=O)N1 (centres unmarked)", "targetDesc": "ROS1", "%Inh [%]": 0}
{"compound": "Cl.O=C(Nc1cccc(-c2nn3ncccc3c2-c2ccnc(Nc3cccnc3)n2)c1)c1c(F)cccc1F", "targetDesc": "ROS1", "%Inh [%]": 0}
{"compound": "COc1cccc(NC(=O)NC2CCN(c3ccnc(Nc4ccc(F)cc4)n3)C2)c1 (centres unmarked)", "targetDesc": "ROS1", "%Inh [%]": 0}
{"compound": "CC(C)(C)c1ccc(C(=O)Nc2cn3cc(Cl)ccc3n2)cc1", "targetDesc": "ROS1", "%Inh [%]": 0}
{"compound": "CS(=O)(=O)c1ccc(-c2c(-c3ncn[nH]3)sc(N3CCOCC3)c2C#N)cc1", "targetDesc": "ROS1", "%Inh [%]": 14}
{"compound": "COC(=O)c1c(-c2ccccc2)c2cc(C(=O)O)ccc2c(=O)n1Cc1ccccc1", "targetDesc": "ROS1", "%Inh [%]": 0}
{"compound": "CCn1c(-c2ccccn2)nc2cnccc21", "targetDesc": "ROS1", "%Inh [%]": 0}
{"compound": "COc1cccc(-c2cc(-c3c[nH]nc3-c3ccccn3)ccn2)c1", "targetDesc": "ROS1", "%Inh [%]": 0}

###

Tested on: TGFBR2
conditionSet: concentration: 1 μM, replicates: in singlicate; n = 1
readoutLabel: %Inh (%)

{"compound": "Cc1cccc(-c2nc(Nc3ccc4[nH]ncc4c3)c3ccccc3n2)n1", "testValue": 0}
{"compound": "Nc1ncnc2[nH]c(-c3ccccc3)nc12", "testValue": 9}
{"compound": "O=C(Nc1ccc2c(c1)OCO2)NC1CCN(c2ccnc(Nc3ccc(F)cc3)n2)C1 (centres unmarked)", "testValue": 0}
{"compound": "Cc1ccc(NC(=O)Nc2cc(C(C)(C)C)nn2-c2ccccc2)cc1", "testValue": 1}
{"compound": "Cl.Oc1ccc(-c2nc(-c3ccccc3)[nH]c2-c2ccncc2)cc1", "testValue": 7}
{"compound": "Cc1ccc(NC(=O)Nc2cccc(Cl)c2)cc1-c1ccc(C(=O)Nc2ccncc2)cc1", "testValue": 0}
{"compound": "COC(=O)c1c(-c2ccccc2)c2cc(C(=O)O)ccc2c(=O)n1Cc1ccccc1", "testValue": 8}
{"compound": "COc1ccccc1-c1ccc2c(NC(=O)C3CC3)n[nH]c2n1", "testValue": 1}
{"compound": "NC(=O)c1nnc2ccccc2c1N", "testValue": 0}
{"compound": "Cc1c(O)cccc1Nc1ccnc2ccc(C(F)(F)F)cc12.Cl", "testValue": 8}
{"compound": "COc1ccccc1CNC(=O)c1cc(C(=O)c2ccccc2C)c[nH]1", "testValue": 0}
